Provenance of the data: patent US5266600A

System: HIV-1 IIIb
Experiment: Acute infection of HIV-1 IIIb in CEM-SS cells
Format: cell-based
Settings: acute infection of HIV-1 IIIb
quantity-measured: pIC50
Scale for pIC50: -log10 of concentration given in mol/L; no unit attached.

Readout pIC50 for CC1=CCC2(C)C(=O)C(O)=C(C(C)CO)C2CC=C(C)C(O)CCC(C)=CCC1 (stereo not shown) [BU-4641V] , test system HIV-1 IIIb, was 5.00

====

Assay: Cytotoxicity in virus-uninfected MT-4 cells
Type: cell-based
Settings: human; virus-uninfected MT-4 cells
quantity-measured: CC50 (µg/mL)
Please reply with the bare figure in µg/mL and do not write the unit itself.

Entry CC1=CCC2(C)C(=O)C(O)=C(C(C)CO)C2CC=C(C)C(O)CCC(C)=CCC1 (stereo not shown) [BU-4641V] , CC50 reported as 37.8
